- systemName: 5HT2B receptors (Homo sapiens, UniProt P41595)
- Construct: expressed in transfected cells; host or cells: CHO-K1 cells
- Sequence (P41595 whole entry): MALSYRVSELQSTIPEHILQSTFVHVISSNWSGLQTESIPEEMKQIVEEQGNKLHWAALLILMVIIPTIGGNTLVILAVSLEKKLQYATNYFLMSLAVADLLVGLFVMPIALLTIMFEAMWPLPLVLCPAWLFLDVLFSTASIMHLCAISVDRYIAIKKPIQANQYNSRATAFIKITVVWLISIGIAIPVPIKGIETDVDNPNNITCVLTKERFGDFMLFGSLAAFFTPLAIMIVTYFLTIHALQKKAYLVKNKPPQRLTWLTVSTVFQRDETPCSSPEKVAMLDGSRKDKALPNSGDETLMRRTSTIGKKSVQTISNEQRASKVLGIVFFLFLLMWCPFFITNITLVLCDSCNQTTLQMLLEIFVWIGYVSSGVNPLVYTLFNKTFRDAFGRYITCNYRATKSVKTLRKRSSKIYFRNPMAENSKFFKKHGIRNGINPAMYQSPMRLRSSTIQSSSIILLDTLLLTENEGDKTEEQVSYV
- testMethodNotes: Human 5-HT2B functional assay in CHO-K1 cells (calcium flux, FLIPR)
- Assay type: cell-based
- experimentalContext: CHO-K1 cells over-expressing 5HT2B, calcium flux; read-out: EC50 (μM), 5-HT2B Agonist Activity
parameter: EC50

COc1ccc(-c2ccc3c(c2)N2CCNCC2CC(=O)N3)cc1 (stereo not shown) [Example 58] = > 10 µM

input: Report EC50 for CCC(Oc1ccc2c(c1)N1CCNC[C@@H]1CC(=O)N2)c1ccccc1 (stereo partly shown) [Example 177] please.
output: > 10 µM

input: Let us now turn to O=C1CC2CNCCN2c2cc(OCc3ccccc3C(F)(F)F)ccc2N1 (stereo not shown) [Example 157]
output: > 10 µM

input: Let us now turn to CCC(C)Oc1ccc2c(c1)N1CCNC[C@@H]1CC(=O)N2 (stereo partly shown) [Example 174]
output: > 10 µM

---

- systemName: 5HT2B receptors (Homo sapiens)
- Construct: expressed in transfected cells; host or cells: CHO-K1 cells
- testMethodNotes: Human 5-HT2B functional assay in CHO-K1 cells (calcium flux, FLIPR)
- Assay type: cell-based
- experimentalContext: CHO-K1, read-out: Emax (%), 5-HT2B Agonist Activity
parameter: Emax (%)

c1ccc2c(c1)OCC[C@@H]1CNCCN21 [Example 255] = 70
Fc1cccc2c1OCC[C@H]1CNCCN21 [Example 139] = 20
Cc1cccc2c1N1CCNCC1CC(=O)N2 (centres unmarked) [Example 53] = 60

A. FCCN1CCN2c3ccccc3OCC[C@@H]2C1 [Example 269]
B. FCCN1CCN2c3ccccc3OCC[C@H]2C1 [Example 240]
input: Please let me know which one, A or B , has a lower measured Emax value. Selection: enter the item's label.
output: B

---

- systemName: 5HT2B receptors (Homo sapiens)
- Construct: expressed in transfected cells; host or cells: CHO-K1 cells
- testMethodNotes: Human 5-HT2B functional assay in CHO-K1 cells (calcium flux, FLIPR)
- Type: cell-based
- Description: (iii) Human 5-HT2C and 5-HT2B Functional Assay in CHO-K1 Cells […] Fluorescence measurements were read at 25° C. at an excitation wavelength of 480 nm and an emission wavelength of 530 nm in FLIPR (MDS). Baseline fluorescence was measured for the first 10 seconds and then 15 μL of 4× concentrations of serotonin/test compounds was added to the cell plate. The fluorescence intensity was captured every second for the first 1 minute followed by every 5 seconds for an additional 2 minutes. […]
compounds and their reported EC50

input: Report EC50 for CCN1CCN2c3ccccc3OCC[C@H]2C1 please.
output: > 10 µM

---

compounds and their reported EC50
- systemName: 5HT2B receptors (Homo sapiens)
- Construct: expressed in transfected cells; host or cells: CHO-K1 cells
- testMethodNotes: Human 5-HT2B functional assay in CHO-K1 cells (calcium flux, FLIPR)
- Format: cell-based
- experimentalContext: CHO-K1 cells over-expressing 5HT2B, calcium flux; read-out: EC50 (μM), 5-HT2B Agonist Activity

Consider the following illustrative entries.
O=C1C[C@H]2CNCCN2c2cc(-c3ccccc3F)ccc2N1 [Example 116] = 0.05 µM
O=C1CC2CNCCN2c2cc(-c3ccsc3)ccc2N1 (stereo not shown) [Example 72] = 2 µM
O=C1C[C@H]2CNCCN2c2cc(OCC3CC3)ccc2N1 [Example 170] = > 10 µM
C[C@@H](Cc1ccccc1)Oc1ccc2c(c1)N1CCNC[C@H]1CC(=O)N2 [Example 167] = > 10 µM
Oc1ccc(-c2ccc3c(c2)N2CCNC[C@@H]2CCO3)cc1 [Example 202] = 1 µM

Then there is this compound:
input: Report EC50 for c1csc(-c2cccc3c2OCC[C@H]2CNCCN32)c1 [Example 249] please.
output: > 10 µM
